Test system: OVCAR-8 ovarian
Assay: NCI tumour cell line growth inhibition, 48 h
Listed compounds paired with reported TGI
ASSAY METRIC: TGI

* CC1OC(OC2C(O[C@H]3CC[C@@]4(C)C(=CC[C@H]5[C@@H]6C[C@@H]7O[C@]8(CC[C@H](C)CN8)[C@@H](C)[C@@H]7[C@@]6(C)CC[C@@H]54)C3)OC(CO)C(O)C2OC2OC(CO)C(O)C(O)C2O)C(O)C(O)C1O (some centres undefined) | 31.1 µM
* C/C(=C/C(=O)Nn1c(Cc2ccccc2)n[nH]c1=O)C(=O)O | > 100 µM
* COc1ccc(Nc2c3ccccc3nc3ccccc23)cc1 | 16.7 µM
* O=c1oc2cc(O)ccc2c(O)c1C(c1cccnc1)c1c(O)c2ccc(O)cc2oc1=O | > 100 µM
* CC(=Nc1ccccc1)C1=C(O)C(Cc2ccccc2)NC1=O (centres undefined) | > 100 µM
* CCCCCCCCCCCCOP(=O)(O)OCC(N)C(=O)O (centres undefined) | > 100 µM
* CCCCCCOP(=O)(OCCCCCC)C(NC(=O)OCC)(C(F)(F)F)C(F)(F)F | > 100 µM
* O=C(O)c1cccc(N=Nc2c(S(=O)(=O)O)ccc3c2C(=O)c2ccccc2C3=O)c1O | > 100 µM
* O=C(/C=C/c1ccc(/C=C/C(=O)c2ccc(O)cc2)cc1)c1ccc(O)cc1 | > 100 µM

* * *

Tested on: CCRF-CEM leukemia
Assay: NCI tumour cell line growth inhibition, 48 h
Non-standard residues stand in square brackets, D forms with d. Residues, ends and D or L forms follow the SMILES beside them. *: point of attachment. hSer = N[CH](CCO)C(=O)O; Boc = CC(C)(C)OC(=O)*
ASSAY METRIC: GI50

- CC1(C)[C@@H](O[C@@H]2OC[C@@H](O[C@@H]3O[C@H](CO)[C@@H](O)[C@H](O)[C@H]3O[C@@H]3OC[C@@H](O)[C@H](O)[C@H]3O)[C@H](O)[C@H]2O[C@@H]2O[C@H](CO)[C@@H](O)[C@H](O)[C@H]2O)CC[C@]2(C)[C@H]3CC[C@]45OC[C@@]6(CC[C@](C)(C=O)C[C@H]64)[C@H](O)C[C@@]5(C)[C@]3(C)CC[C@@H]12: 1.02 µM
- COCCC(NC(=O)C(CC(C)C)NC(=O)OC(C)(C)C)C(=O)OC (stereo not drawn) (Boc-Leu-[hSer](Me)-OMe; configuration not given here): 17.8 µg/mL
- CCC1CCc2nc3sc(C(=O)Nc4cccc(F)c4)c(N)c3cc2C1 (stereo not drawn): 1.79 µM
- O=C(Nc1ccccc1)NS(=O)(=O)c1ccc(-n2nc3c(c2-c2ccc(Cl)cc2)Cc2ccccc2-3)cc1: 3.21 µM
- CC(=O)O[C@]1(C(C)=O)CC[C@H]2[C@@H]3C=C(C)C4=CC(=O)CC[C@]4(C)[C@H]3CC[C@@]21C: > 80.4 µM
- Nc1nc(-c2ccc(F)cc2)c(-c2ccc3ncccc3n2)s1: > 22.1 µM
- NC(=O)c1cc(-c2ccc(F)cc2)cc(-c2ccncc2)c1N: > 25 µM
- CC[C@@H](C(=O)[C@@H](C)[C@@H](O)[C@H](C)[C@@H]1O[C@@H]([C@@H](CC)C(=O)N(CC)CC)CC[C@@H]1C)C1O[C@]2(C=CC(=O)[C@]3(CC[C@@](C)([C@H]4CC[C@](O)(CC)[C@H](C)O4)O3)O2)[C@H](C)C[C@@H]1C (stereo partly drawn): 3.01 µM

* * *

Tested on: RXF 393 renal
Experiment: NCI tumour cell line growth inhibition, 48 h
Listed compounds paired with reported TGI
ASSAY METRIC: TGI (µM)

- Cc1cc(C)nc(NS(=O)(=O)c2ccc(Nc3c4ccc(Cl)cc4nc4c(C(=O)Nc5ccc(S(N)(=O)=O)cc5)cccc34)cc2)n1: 26.7
- CN(C)c1ccc(C(Cc2ccc3ccccc3n2)Cc2ccc3ccccc3n2)cc1: 9.11
- CCCCN1C(=O)c2c(-c3sccc3N)sc(-c3sccc3N)c2C1=O: 41
- O=C(O)/C(=C/C=C/c1ccccc1)c1csc(-c2nc(/C(=C\C=C\c3ccccc3)C(=O)O)cs2)n1: 82.4
- Cc1cc(N(CCNc2ccnc3cc(Cl)ccc23)Cc2ccco2)nc(Cl)n1: 2.68
- COc1ccc2sc(-n3nc4ccccc4c3Nc3nc4ccc(OC)cc4s3)nc2c1: 43.3

* * *

Test system: EKVX NSCLC
Assay: NCI tumour cell line growth inhibition, 48 h
Where a SMILES comes first, the peptide text is derived from it. The star is where a group is joined. Fmoc = O=C(OCC1c2ccccc2-c2ccccc21)*; Boc = CC(C)(C)OC(=O)*
ASSAY METRIC: TGI

• CCN(C(=O)c1cc(F)ccc1Oc1cncnc1N1CC2(CCN(CC3CCC(NS(=O)(=O)CC)CC3)CC2)C1)C(C)C (stereo not drawn) = > 100 µM
• O=C1CCCC/C1=C\c1ccc(Br)cc1 = 62.8 µM
• CC1C2CC(C(S(=O)(=O)N3CCOCC3)/C2=N\O)C1(C)C (stereo not drawn) = > 100 µM
• CC1OC(O[C@H]2C3C=CO[C@@H](OC4OC(CO)C(O)C(O)C4O)C3[C@@]3(COC(=O)/C=C/c4ccc(O)cc4)O[C@@H]23)C(O)C(O)C1O (stereo partly drawn) = > 100 µM
• COCCCNC(=O)CC(=O)NCCCOC = > 100 µM
• Nc1nc(Cl)cc(NCCC2(CO)CCC2)n1 = > 100 µM
• COc1cc2c3c(c1OC)-c1c(ccc4c1OCO4)CC3(C#N)N(C(=O)c1ccccc1)CC2 (stereo not drawn) = > 100 µM
• Nc1nc(-c2ccc(F)cc2)c(-c2ccc3ncccc3n2)s1 = > 25 µM
• C#CC1(O)C(COP(=O)(O)OCC2OC(n3ccc(NCCCCCCCCCCCCCCCCCC)nc3=O)C(O)C2O)OC(n2ccc(N)nc2=O)C1O (stereo not drawn) = 54.1 µM
• O=C/C=C/c1ccco1 = > 100 µM
• CC(C)(C)OC(=O)NCCCCC(NC(=O)OCC1c2ccccc2-c2ccccc21)C(=O)N1CCCC1C(=O)NCC(N)=O (stereo not drawn) (Fmoc-Lys(Boc)-Pro-Gly-NH2; configuration not given here) = > 100 µM
• Cc1ccc(-n2[nH]nc(C#N)c2=O)cc1 = > 100 µM
• Clc1ccc(C2SCc3nc4ccccc4n32)cc1Cl (stereo not drawn) = 28.1 µM
• O=[N+]([O-])c1cccc(-c2oc(C=Nc3ccccc3)c([N+](=O)[O-])c2-c2cccc([N+](=O)[O-])c2)c1 = > 100 µM
• Cc1c2cnccc2c(C)c2c1c1ccccc1n2CCCCCCNCc1ccccc1 = 3.94 µM
• O=C(O)c1cn2c3c(cc(N4CCN(CCO)CC4)cc3c1=O)SCC2 = > 100 µM
• CCOC(=O)c1ccc(C(=O)/C(C(C)=O)=C2\CCCN2C)n1C = > 100 µM
• CCCCCCCCCc1cccc(N2C(N)=NC(N)=NC2(C)C)c1 = 10.5 µM
• Cc1noc2nnn(-c3ccc(Cl)cc3)c(=O)c12 = 20.4 µM
• O=C(Cc1nccc2c1[nH]c1ccccc12)OC1C#CCSCC#C/C=C\1 (stereo not drawn) = > 100 µM
• CN1CCC(CN2c3ccccc3Sc3ccccc32)CC1 = 27.5 µM
• CC[C@@H](C(=O)[C@@H](C)[C@@H](O)[C@H](C)[C@@H]1O[C@@H]([C@@H](CC)C(=O)N(CC)CC)CC[C@@H]1C)C1O[C@]2(C=CC(=O)[C@]3(CC[C@@](C)([C@H]4CC[C@](O)(CC)[C@H](C)O4)O3)O2)[C@H](C)C[C@@H]1C (stereo partly drawn) = 18.6 µM
• O=C1CCC(=O)N1n1c(Cc2ccc(Cl)cc2)n[nH]c1=O = > 100 µM

* * *

Listed compounds paired with reported TGI
Tested on: SW-620 colon
Experiment: NCI tumour cell line growth inhibition, 48 h
ASSAY METRIC: TGI

• CC(=O)O[C@]1(C(C)=O)CC[C@H]2[C@@H]3C=C(C)C4=CC(=O)CC[C@]4(C)[C@H]3CC[C@@]21C = > 100 µM
• O=C1CCC(=O)N1n1c(Cc2ccc(Cl)cc2)n[nH]c1=O = > 100 µM
• COCOc1c(C(O[Si](C)(C)C(C)(C)C)c2cnc(Sc3ccccc3)n2C)ccc(OC)c1OC (centres undefined) = 3.8 µM
• CN(C)c1nncc2[nH]cnc12 = > 100 µM
• N=c1c2c(-c3ccccc3)c[nH]c2ncn1N = > 100 µM
• CC(=O)OCC1OC(SC2OC(COC(C)=O)C(OC(C)=O)C(OC(C)=O)C2OC(C)=O)C(OC(C)=O)C(OC(C)=O)C1OC(C)=O (centres undefined) = > 100 µM
• O=[N+]([O-])c1c(Br)sc(Br)c1[N+](=O)[O-] = 3.27 µM
• O=C(/C=C/c1ccc(/C=C/C(=O)c2ccc(O)cc2)cc1)c1ccc(O)cc1 = > 100 µM
• CCOC(=O)NC(NC1=NCCS1)(C(=O)OCC)C(F)(F)F (centres undefined) = > 100 µM
• O=C1C2C3C=CC(C2C(=O)N1COP(=O)(O)O)C1C2C(=O)N(COP(=O)(O)O)C(=O)C2C31 (centres undefined) = > 65.2 µM
• Fc1ccccc1C1CC(c2ccc3ccccc3c2)=Nc2ccccc2S1 (centres undefined) = > 100 µM
• COC(=O)C1=C(C)NC(C)=C(C(=O)OC)C1/C=C(Cl)/C=C/c1ccccc1 = > 100 µM
• O=C(Nc1ccccc1)NS(=O)(=O)c1ccc(-n2nc3c(c2-c2ccc(Cl)cc2)Cc2ccccc2-3)cc1 = 55.4 µM
• CN1CCC(CN2c3ccccc3Sc3ccccc32)CC1 = 28.6 µM
• c1csc(-c2cc(-c3cccs3)c(-c3cccs3)s2)c1 = > 100 µM
• CC1OC(OC2C(O[C@H]3CC[C@@]4(C)C(=CC[C@H]5[C@@H]6C[C@@H]7O[C@]8(CC[C@H](C)CN8)[C@@H](C)[C@@H]7[C@@]6(C)CC[C@@H]54)C3)OC(CO)C(O)C2OC2OC(CO)C(O)C(O)C2O)C(O)C(O)C1O (some centres undefined) = 39 µM
• Cn1c2ccccc2c2c(=O)[nH]c(=O)[nH]c21 = > 100 µM
• Cc1ccc(S(=O)(=O)OCC23CCC(CC2)C2CC23)cc1 (centres undefined) = > 100 µM
• Fc1ccc(Nc2nc3nonc3nc2Nc2ccc(F)cc2)cc1 = 14.2 µM
• CC1(C)Cc2cc(C(=O)O)c3c(c2C1=O)COCC3 = > 100 µM
• CCNC(=O)c1cc2c(-c3cc(C(C)(C)O)ccc3Oc3c(C)cc(F)cc3C)cn(C)c(=O)c2[nH]1 = 21 µM
• CC(=O)N(O)[C@@H]1CC[C@H](n2cnc3c(N)ncnc32)C1 = > 100 µM
• C=C1CCC2C(C)(C)CCC[C@]2(C)[C@H]1CO (some centres undefined) = > 100 µM
• CC(C)(C)c1cc2c3c(c1)C(C(F)(F)F)(C(F)(F)F)O[Te]3(C)OC2(C(F)(F)F)C(F)(F)F = > 100 µM
• COc1ccc(/C=C2\CCC(CNc3ccc(OC)cc3)C2=O)cc1 (centres undefined) = 12.9 µM
• c1ccc2c(c1)ncn2C1CCCCO1 (centres undefined) = > 100 µM
• COc1ccc(Nc2c3ccccc3nc3ccccc23)cc1 = 14.4 µM
• CN(CC(=O)N(Cc1ccc(C2CCCCC2)cc1)c1ccc(C(=O)O)c(O)c1)S(=O)(=O)c1c(F)c(F)c(F)c(F)c1F = 3.23 µM
• CC(=O)OC(CCC1(C)OC1COc1ccc(CCNC(=O)c2ccccc2)cc1)C(C)(C)OC(C)=O (centres undefined) = > 100 µM
• COc1cc(O)c(C(=O)/C=C/c2ccc(O)cc2)c(O)c1[C@@H]1C[C@H](CCc2ccc(O)cc2)O[C@H](c2ccc(O)cc2)C1 = 4.91 µM
• CCn1cc(C(=O)O)c(=O)c2cc3c(cc21)S(=O)(=O)CC3 = > 100 µM
• CCOC(=O)C1OC(C2(C)OC3(OC4(C=CC3O)OC(C(C)C(=O)C(C)C(O)C(C)CC(C)c3c(Cl)cc(C)c(O)c3C(=O)O)C(C)CC4C)C(C)C2OC)CC1O (centres undefined) = 10.5 µM
• COC(=O)c1ccc(C)cc1/C=C1\Cc2ccc(C)cc2C1=O = 51.3 µM
• COc1cc(COC(=O)N(CC(=O)O)c2ccccc2)c([N+](=O)[O-])cc1OC = > 100 µM
• CCCCCCCCCCCCCC[S+](C)C = > 10 µM
• Cn1/c(=N\S(=O)(=O)c2ccccc2)n(S(=O)(=O)c2ccccc2)c2ccccc21 = > 100 µM
• NCCCNCCCCN(CCCN)/[N+]([O-])=N\O = > 100 µM
• Nc1nc(-c2ccccc2)nc2c1[n+]([O-])c1ccccc1[n+]2[O-] = > 100 µM
• COc1cc(Nc2ccnc(NCCCNc3ccnc4cc(Cl)ccc34)n2)cc(OC)c1 = 2.78 µM

This collection of values is drawn from PubChem BioAssay (NCI).
